MEASURED ON: UniProt:Q16769
MEASUREMENT PROTOCOL: Inhibitor assay for glutaminyl cyclase activity (fluorometric, H-Gln-βNA / H-Gln-AMC)
Format: biochemical
CONDITIONS: read-out: IC50
pIC50: −log10 of the molar value.
READOUT KIND: pIC50

// pIC50 value for O=C(O)CC1=C(O)C(=O)N(c2ccc3[nH]cnc3c2)C1c1cc(Br)ccc1F (stereo not shown) : 5.66

// pIC50 value for CC1C(c2ccc(O)cc2)=C(O)C(=O)N1CCCn1ccnc1 (stereo not shown) : 6.40

I = Cc1ccc(C2C(c3c[nH]c4ccccc34)=C(O)C(=O)N2CCCn2ccnc2)cc1 (stereo not shown)
II = O=C1C(O)=C(c2c[nH]c3ccccc23)C(c2ccc(CO)o2)N1c1ccc2[nH]cnc2c1 (stereo not shown)
Consider I and II . Which of these has its pIC50 at a higher number? Could you answer with the label of the item you picked?
I

====

READOUT KIND: melting point

Examples with their reported melting point follow.
// melting point value for CC(=O)C1=C(O)C(=O)N(c2ccc3[nH]cnc3c2)C1c1cc(Br)ccc1F (stereo not drawn) [Compound 437] : 195 °C

// melting point value for CC1=C(O)C(=O)N(c2ccc3[nH]cnc3c2)C1c1cccc(Cl)c1Cl (stereo not drawn) [Compound 468] : 162 to 174 °C

Consider the additional compound presented here.
// melting point value for O=C(C1=C(O)C(=O)N(c2ccc3[nH]cnc3c2)C1c1ccc2nsnc2c1)C1CC1 (stereo not drawn) [Compound 287] : 270 °C (dec.)

====

MEASURED ON: hQC (Homo sapiens, UniProt Q16769)
Sequence (Q16769 29-361): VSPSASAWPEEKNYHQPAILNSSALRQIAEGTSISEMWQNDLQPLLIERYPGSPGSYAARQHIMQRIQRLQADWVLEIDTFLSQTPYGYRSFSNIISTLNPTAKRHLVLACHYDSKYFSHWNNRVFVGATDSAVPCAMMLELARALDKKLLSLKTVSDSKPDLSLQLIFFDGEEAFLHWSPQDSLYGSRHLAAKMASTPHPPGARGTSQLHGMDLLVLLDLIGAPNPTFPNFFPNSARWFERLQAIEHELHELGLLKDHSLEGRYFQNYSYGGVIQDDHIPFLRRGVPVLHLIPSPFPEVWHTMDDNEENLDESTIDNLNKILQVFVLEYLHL
MEASUREMENT PROTOCOL: Inhibitor assay for glutaminyl cyclase activity (fluorometric, H-Gln-βNA / H-Gln-AMC)
Format: biochemical
CONDITIONS: compound from preparative synthesis, purified; read-out: IC50 hQC
Procedure: All measurements were performed with a BioAssay Reader HTS-7000Plus for microplates (Perkin Elmer) at 30° C. QC activity was evaluated fluorometrically using H-Gln-βNA. […] QC activity was determined from a standard curve of β-naphthylamine under assay conditions. […] In a second fluorometric assay, QC activity was determined using H-Gln-AMC as substrate. Reactions were carried out at 30° C. utilizing the NOVOStar reader for microplates (BMG labtechnologies). […]
READOUT KIND: IC50 (nM)

Entry O=C1C(O)=C(c2ccc(O)cc2)C(c2ccccc2F)N1CCCn1ccnc1 (stereo not drawn) [Compound 180] , tested on hQC (Homo sapiens, UniProt Q16769), has a reported IC50 of 344

A = CC(=O)C1=C(O)C(=O)N(c2ccc3[nH]cnc3c2)C1c1ccc2nsnc2c1 (stereo not drawn) [Compound 376]
B = O=C1C(O)=C(c2c[nH]c3ccccc23)C(c2ccccc2F)N1CCCn1ccnc1 (stereo not drawn) [Compound 144]
Smaller IC50 value, A vs B ? Could you answer with the label of the item you picked?
A

====

MEASURED ON: hQC (Homo sapiens, UniProt Q16769)
MEASUREMENT PROTOCOL: Inhibitor assay for glutaminyl cyclase activity (fluorometric, H-Gln-βNA / H-Gln-AMC)
Type: biochemical
CONDITIONS: read-out: IC50
pIC50: −log10 of the molar value.
READOUT KIND: pIC50

Examples with their reported pIC50 follow.
Entry O=C(O)c1ccc(C2C(C(=O)C3CCCCC3)=C(O)C(=O)N2c2ccc3[nH]cnc3c2)o1 (stereo not shown) , tested on hQC (Homo sapiens, UniProt Q16769), has a reported pIC50 of 6.12

Entry CCCCCC1=C(O)C(=O)N(CCCn2ccnc2)C1C1CCC=CO1 (stereo not shown) , tested on hQC (Homo sapiens, UniProt Q16769), has a reported pIC50 of 7.40

Entry CCC1=C(O)C(=O)N(CCCn2ccnc2)C1c1ccc(C)cc1 (stereo not shown) , tested on hQC (Homo sapiens, UniProt Q16769), has a reported pIC50 of 6.40

Entry CCCCCC1=C(O)C(=O)N(CCCn2ccnc2)C1C(C)CC (stereo not shown) , tested on hQC (Homo sapiens, UniProt Q16769), has a reported pIC50 of 6.40

Entry CCC1=C(O)C(=O)N(CCCn2ccnc2)C1c1cccc(Cl)c1 (stereo not shown) , tested on hQC (Homo sapiens, UniProt Q16769), has a reported pIC50 of 7.40

1 = O=C1C(O)=C(c2ccccc2)C(c2ccc(N3CCCC3)cc2)N1c1ccc2[nH]cnc2c1 (stereo not shown)
2 = Cc1ccc(C2C(c3ccccc3)=C(O)C(=O)N2CCCn2ccnc2)cc1C (stereo not shown)
Consider 1 and 2 . Which of these has its pIC50 at a higher number? Could you answer with the label of the item you picked?
2

P = CCCC1=C(O)C(=O)N(c2ccc3[nH]cnc3c2)C1c1ccc(C(=O)O)o1 (stereo not shown)
Q = CC(C)C1=C(O)C(=O)N(c2ccc3[nH]cnc3c2)C1c1ccco1 (stereo not shown)
R = CC1=C(O)C(=O)N(CCCn2ccnc2)C1/C=C/c1ccccc1 (stereo not shown)
S = CC(=O)C1=C(O)C(=O)N(c2ccc3[nH]cnc3c2)C1c1ccc(O)c(Br)c1 (stereo not shown)
T = CCCCCC1=C(O)C(=O)N(CCCn2ccnc2)C1c1cccc(O)c1 (stereo not shown)
Order by pIC50, ascending. Your answer should be the labels, listed in the requested order.
P, Q, R, S, T

P = CC1=C(O)C(=O)N(c2ccc3[nH]cnc3c2)C1c1ccnc2ccccc12 (stereo not shown)
Q = O=C(C1=C(O)C(=O)N(c2ccc3[nH]cnc3c2)C1c1ccnc2ccccc12)C1CCCCC1 (stereo not shown)
R = CCC1=C(O)C(=O)N(CCCn2ccnc2)C1c1ccccn1 (stereo not shown)
Order by pIC50, ascending. Your answer should be the labels, listed in the requested order.
P, R, Q

P = O=C1C(O)=C(c2cccc(O)c2)C(c2cc(Cl)cc(Cl)c2O)N1CCCn1ccnc1 (stereo not shown)
Q = Cn1cc(C2C(c3c[nH]c4ccccc34)=C(O)C(=O)N2c2ccc3[nH]cnc3c2)c2ccccc21 (stereo not shown)
Smaller pIC50 value, P vs Q ? Could you answer with the label of the item you picked?
Q
(Q: 5.20, P: 5.66)

a = CCCC1C(CC)=C(O)C(=O)N1CCCn1ccnc1 (stereo not shown)
b = CC(C)C1=C(O)C(=O)N(c2ccc3[nH]cnc3c2)C1c1csc2ccccc12 (stereo not shown)
Smaller pIC50 value, a vs b ? Could you answer with the label of the item you picked?
b

1 = CC1=C(O)C(=O)N(c2ccc3[nH]cnc3c2)C1c1c(F)ccc(Cl)c1F (stereo not shown)
2 = O=C(O)CCC1C(C(=O)C2CCCCC2)=C(O)C(=O)N1c1ccc2[nH]cnc2c1 (stereo not shown)
Smaller pIC50 value, 1 vs 2 ? Could you answer with the label of the item you picked?
2
(2: 5.05, 1: 5.38)

====

MEASURED ON: hQC (Homo sapiens, UniProt Q16769)
MEASUREMENT PROTOCOL: Inhibitor assay for glutaminyl cyclase activity (fluorometric, H-Gln-βNA / H-Gln-AMC)
Type: biochemical
CONDITIONS: read-out: IC50
Method: All measurements were performed with a BioAssay Reader HTS-7000Plus for microplates (Perkin Elmer) at 30° C. QC activity was evaluated fluorometrically using H-Gln-βNA. […] QC activity was determined from a standard curve of β-naphthylamine under assay conditions. […] In a second fluorometric assay, QC activity was determined using H-Gln-AMC as substrate. Reactions were carried out at 30° C. utilizing the NOVOStar reader for microplates (BMG labtechnologies). […]
READOUT KIND: IC50 (nM)

Examples with their reported IC50 follow.
// IC50 value for Cc1ccc(O)c(C2C(c3c[nH]c4ccccc34)=C(O)C(=O)N2c2ccc3[nH]cnc3c2)c1 (stereo not shown) : 7690

// IC50 value for Cn1cc(C2C(CC(=O)O)=C(O)C(=O)N2c2ccc3[nH]cnc3c2)c2ccccc21 (stereo not shown) : 5800

I = O=C1C(O)=C(c2cccc(O)c2)C(C2CC2)N1CCCn1ccnc1 (stereo not shown)
II = CC1=C(O)C(=O)N(c2ccc3nc[nH]c3c2)C1c1c(F)cccc1F (stereo not shown)
III = Cc1cccc(C2C(c3c[nH]c4ccccc34)=C(O)C(=O)N2c2ccc3[nH]cnc3c2)n1 (stereo not shown)
IV = CC(C)C1=C(O)C(=O)N(CCCn2ccnc2)C1C1=CCCCC1 (stereo not shown)
V = CC(C)C1=C(O)C(=O)N(CCCn2ccnc2)C1Cc1ccccc1 (stereo not shown)
Order by IC50, ascending. Your answer should be the labels, listed in the requested order.
V, II, III, I, IV
(V: 40 nM, II: 259 nM, III: 760 nM, I: 1300 nM, IV: 2200 nM)

====

MEASURED ON: hQC (Homo sapiens, UniProt Q16769)
MEASUREMENT PROTOCOL: Inhibitor assay for glutaminyl cyclase activity (fluorometric, H-Gln-βNA / H-Gln-AMC)
Assay type: biochemical
CONDITIONS: read-out: IC50
Description: All measurements were performed with a BioAssay Reader HTS-7000Plus for microplates (Perkin Elmer) at 30° C. QC activity was evaluated fluorometrically using H-Gln-βNA. […] QC activity was determined from a standard curve of β-naphthylamine under assay conditions. […] In a second fluorometric assay, QC activity was determined using H-Gln-AMC as substrate. Reactions were carried out at 30° C. utilizing the NOVOStar reader for microplates (BMG labtechnologies). […]
READOUT KIND: IC50 (nM)

// IC50 value for CCC1=C(O)C(=O)N(CCCn2ccnc2)C1c1ccccc1O (centres unmarked) [Compound 230] : 40

// IC50 value for CC(=O)C1=C(O)C(=O)N(c2ccc3[nH]cnc3c2)C1c1cccc(C)c1 (centres unmarked) [Compound 283] : 400

// IC50 value for CCCC(=O)C1=C(O)C(=O)N(c2ccc3[nH]cnc3c2)C1c1ccc2nonc2c1 (centres unmarked) [Compound 421] : 40

// IC50 value for CC1=C(O)C(=O)N(c2ccc3[nH]cnc3c2)C1c1ccc(O)cc1O (centres unmarked) [Compound 265] : 3370

// IC50 value for Cc1ccc2c(C3C(c4c[nH]c5ccccc45)=C(O)C(=O)N3CCCn3ccnc3)c[nH]c2c1 (centres unmarked) [Compound 130] : 1300

// IC50 value for O=C1C(O)=C(c2ccc(O)cc2)C(c2ccc(O)cc2)N1CCCn1ccnc1 (centres unmarked) [Compound 181] : 40

// IC50 value for CCCCCC1=C(O)C(=O)N(CCCn2ccnc2)C1CCCC (centres unmarked) [Compound 214] : 400

// IC50 value for CCCCCC1=C(O)C(=O)N(CCCn2ccnc2)C1c1ncc[nH]1 (centres unmarked) [Compound 205] : 2200

// IC50 value for O=C1C(O)=C(c2ccccc2)C(c2c(F)ccc(Cl)c2F)N1c1ccc2[nH]cnc2c1 (centres unmarked) [Compound 339] : 580

// IC50 value for CC1=C(O)C(=O)N(CCCn2ccnc2)C1c1cc[nH]n1 (centres unmarked) [Compound 23] : 7600

P = CSCC1=C(O)C(=O)N(c2ccc3[nH]cnc3c2)C1c1cccc(F)c1 (centres unmarked) [Compound 299]
Q = CC1C(c2ccccc2)=C(O)C(=O)N1CCCn1ccnc1 (centres unmarked) [Compound 90]
Consider P and Q . Which of these has its IC50 at a higher number? Could you answer with the label of the item you picked?
P
